Source: patent US20030068675

Biological target: T1, ZFP SBS#1329 (synthetic)
T1 chain: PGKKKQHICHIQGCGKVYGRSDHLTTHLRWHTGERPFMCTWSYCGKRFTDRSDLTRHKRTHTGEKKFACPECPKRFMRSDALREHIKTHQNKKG
Test: EMSA
Details: tags: MBP fusion

Binder	Unit Name	Kd
CTGGCCTGG (dsDNA) DNA 1: CTGGCCTGG DNA 2: CCAGGCCAG	pM	680
